Target: CIB1 and αIIb interaction (CIB1-GST : F-αIIb peptide) (Homo sapiens, UniProt Q99828)
Construct: made in house; host or cells: BL-21 plus RIL cells (E. coli)
Sequence (Q99828 1-191): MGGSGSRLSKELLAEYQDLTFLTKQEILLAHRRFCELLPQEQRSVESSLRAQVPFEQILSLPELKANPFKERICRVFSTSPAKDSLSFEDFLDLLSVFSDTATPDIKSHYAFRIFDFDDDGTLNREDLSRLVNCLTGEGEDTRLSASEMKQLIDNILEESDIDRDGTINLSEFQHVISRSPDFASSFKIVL
Assay: FP assay, 1536-well qHTS format (primary and confirmatory screen)
Assay type: binding
Settings: qHTS primary screen hits, Table S2; negative sign = inhibitory curve; several classes where COUNT > 1
RECORDED METRIC: Curve Class

>  <CHEMICAL STRING>
NC(=O)c1ccc(Cc2c(-c3cccc(-c4ccccc4)c3)nn(-c3nc(C(=O)O)cs3)c2O)cc1.O=C(O)C(F)(F)F

>  <READOUT NUMBER>
-2.2

$$$$
>  <CHEMICAL STRING>
O=C(c1cc(O)c(O)c(O)c1)c1ccc(O)c(O)c1O

>  <READOUT NUMBER>
-2.2

$$$$
>  <CHEMICAL STRING>
NS(=O)(=O)c1ccc(Cc2cn(-c3nc(C(=O)O)cs3)nc2-c2ccc(F)c(F)c2)cc1.O=C(O)C(F)(F)F

>  <READOUT NUMBER>
-2.4

$$$$
>  <CHEMICAL STRING>
COc1ccc(Nc2cc(C)nc(-n3nc(C)cc3C)n2)cc1Cl.O=C(O)C(F)(F)F

>  <READOUT NUMBER>
-2.4

$$$$
>  <CHEMICAL STRING>
CO[C@H](C(=O)[C@@H](O)[C@@H](C)O)[C@@H]1Cc2cc3cc(C[C@H]4C[C@H](O[C@H]5C[C@@H](O)[C@H](O)[C@@H](C)O5)[C@@H](O)[C@@H](C)O4)c(C)c(O)c3c(O)c2C(=O)[C@H]1O[C@@H]1C[C@H](O[C@@H]2C[C@H](O[C@@H]3C[C@](O)(CO)[C@@H](O)[C@H](C)O3)[C@@H](O)[C@H](C)O2)[C@@H](O)[C@H](C)O1

>  <READOUT NUMBER>
-2.2

$$$$
